Where these numbers come from: patent US6610890B1

Documented melting point across a set of compounds
quantity_measured: melting point

> print(dat)
                           structure.smiles  quantity.measured         result
1  Oc1c(Cl)c(Cl)c(-c2c(Cl)c(Cl)c(O)c(Cl)c2Cl)c(Cl)c1Cl      melting point    94 to 96 °C
2  Oc1c(Oc2cc(Br)c(Br)c(Br)c2O)cc(Br)c(Br)c1Br      melting point  188 to 190 °C
3  Oc1c(Br)cc(Oc2cc(Br)c(Br)c(Br)c2O)c(O)c1Br      melting point  207 to 209 °C
4  Oc1c(Br)c(Br)c(-c2c(Br)c(Br)c(O)c(Br)c2Br)c(Br)c1Br      melting point         282 °C
